Would you mind telling me the reported cell viability (log2) of each entry?
Test system: A673/TR/shEF
Assay: cell viability (LOESS-normalised, relative to median of negative controls) (log2 ratio); higher = more viable cells (less compound effect), active = hit call of the paper (over 3 MAD below the median)
Conditions: 0.25 µM; library screen: screen2; EWS-FLI1 expression: high (no doxycycline); treatment time: 72 h
The campaign covered roughly 3,200 compounds. About 300 (9.4%) showed activity. Many of the other results were omitted from the sample, so actives are more common in it than they were.
Give bare numbers.

- MOLECULE: "CC1CN(S(=O)(=O)c2cccc3cnccc23)CCN1 (stereo not drawn)"
  MEASURED_QUANTITY: "cell viability (log2)"
  EXPERIMENTAL_VALUE: 0.246

Go through the list and state cell viability (log2) for each entry.
1. COc1cc([C@@H]2c3cc4c(cc3[C@@H](O[C@@H]3O[C@@H]5CO[C@@H](C)O[C@H]5[C@H](O)[C@H]3O)[C@H]3COC(=O)[C@H]23)OCO4)cc(OC)c1O
2. N=C(N)c1ccc(N)cc1
3. CCn1cc(C(=O)O)c(=O)c2ccc(Cc3ccccc3)nc21
4. C[n+]1c2cc(N)ccc2cc2ccc(N)cc21
5. CN1C[C@H](O)[C@@H](O)[C@H](O)[C@H]1CO
6. O=c1[nH]c(=O)n([C@H]2C[C@H](O)[C@@H](CO)O2)cc1/C=C/Br
7. CCCCCCCCCCCCCCCCCC(=O)NCC(COP(=O)([O-])OCC[N+](C)(C)C)OCC (stereo not drawn)

1: 0.197; 2: 0.132; 3: 0.215; 4: 0.0533; 5: -0.0352; 6: 0.184; 7: 0.252

For the 8 molecules below, give their cell viability (log2) values.
1. Nc1nc(Nc2ccccc2)nc2c1ncn2C1O[C@H](CO)[C@@H](O)[C@H]1O (stereo partly drawn)
2. CN1C(=O)CCC1c1cccnc1 (stereo not drawn)
3. Fc1cccc(CN(C2=NCCN2)c2c(Cl)cccc2Cl)c1
4. CCC(C)[C@H]1O[C@]2(CC[C@@H]1C)CC1C[C@@H](C/C=C(\C)[C@@H](O[C@H]3C[C@H](OC)[C@@H](OC4C[C@H](OC)[C@@H](O)[C@H](C)O4)[C@H](C)O3)[C@@H](C)/C=C/C=C3\CO[C@@H]4[C@H](O)C(C)=C[C@@H](C(=O)O1)[C@]34O)O2.CO[C@H]1CC(O[C@H]2[C@H](C)O[C@@H](O[C@@H]3/C(C)=C/C[C@@H]4CC(C[C@]5(CC[C@H](C)[C@@H](C(C)C)O5)O4)OC(=O)[C@@H]4C=C(C)[C@@H](O)[C@H]5OC/C(=C\C=C\[C@@H]3C)[C@]54O)C[C@@H]2OC)O[C@@H](C)[C@@H]1O (stereo partly drawn)
5. COc1cc2c(cc1O)CC[C@@H]1[C@@H]2CC[C@]2(C)[C@@H](O)CC[C@@H]12
6. O=C([O-])[O-].[Ca+2]
7. O=C(O)C1CN(CCCP(=O)(O)O)CCN1 (stereo not drawn)
8. C[C@]12CC[C@@H]3c4ccc(O)cc4CC[C@H]3[C@@H]1CC[C@@H]2O

[0.161, 0.264, 0.243, 0.0727, 0.11, 0.129, 0.0853, 0.147]

Please state, for each entry, its recorded cell viability (log2).
1. COC(=O)/C=C/c1cc(O)ccc1O
2. C=C1C(=O)O[C@@H]2C[C@@]3(C)CCC[C@H](C)C3=C[C@H]12

0.108
0.177

* * *

System: A673/TR/shEF
Test: cell viability (LOESS-normalised, relative to median of negative controls) (log2 ratio); higher = more viable cells (less compound effect), active = hit call of the paper (over 3 MAD below the median)
Details: 0.25 µM; library screen: screen2; EWS-FLI1 expression: low (doxycycline-induced shRNA knockdown); treatment time: 72 h
Hit rate of the full screen: of about 3,200 compounds, about 300 (9.4%) showed activity. The list comes from a sample in which actives are over-represented; it also holds close analogues and randomly drawn compounds.
MEASURED_QUANTITY: cell viability (log2)
Answers are plain numbers.

- COMPOUND: "NCCCCCC(=O)O"
  MEASURED_QUANTITY: "cell viability (log2)"
  EXPERIMENTAL_VALUE: 0.09

Would you mind giving cell viability (log2) for every compound in the list below?
1. C[N+](C)(C)CCC(=O)c1cccc2ccccc12
2. CC[N+](CC)(CC)CC(=O)Nc1c(C)cccc1C
3. Nc1nc(OCc2ccccc2)c2[nH]cnc2n1

[0.0591, 0.169, 0.111]

Respectfully, I request cell viability (log2) for each entry included below.
1. NC1(C(=O)O)CCc2cc(C(=O)O)ccc21 (stereo not drawn)
2. CCn1cc(C(=O)O)c(=O)c2ccc(Cc3ccccc3)nc21

1. 0.0469
2. 0.061

* * *

Tested on: A673/TR/shEF
Assay: cell viability (LOESS-normalised, relative to median of negative controls) (log2 ratio); higher = more viable cells (less compound effect), active = hit call of the paper (over 3 MAD below the median)
Conditions: 2.5 µM; library screen: screen1; EWS-FLI1 expression: low (doxycycline-induced shRNA knockdown); treatment time: 72 h
In all, about 3,200 compounds went through this assay and about 300 (9.4%) showed activity. The sample as a whole holds a higher share of actives than the screen did.
MEASURED_QUANTITY: cell viability (log2)
Give bare numbers.

- COMPOUND: "[Cl][Pt+2][Cl].[NH2-].[NH2-]"
  MEASURED_QUANTITY: "cell viability (log2)"
  EXPERIMENTAL_VALUE: 0.0761
- COMPOUND: "Nc1ncn([C@@H]2O[C@H](CO)[C@@H](O)[C@H]2O)c(=O)n1"
  MEASURED_QUANTITY: "cell viability (log2)"
  EXPERIMENTAL_VALUE: 0.161
- COMPOUND: "CC1=C(C(=O)Nc2ccccc2Cl)C(c2ccc(F)cc2)NC(=S)N1 (stereo unspecified)"
  MEASURED_QUANTITY: "cell viability (log2)"
  EXPERIMENTAL_VALUE: -0.0806
- COMPOUND: "O=C(O)[C@@H]1C2CC3c4[nH]c5ccccc5c4CCN3CC2CC[C@@H]1O (stereo partly specified)"
  MEASURED_QUANTITY: "cell viability (log2)"
  EXPERIMENTAL_VALUE: 0.142
- COMPOUND: "C/C=C/CC(C)C(O)C1C(=O)NC(CC)C(=O)N(C)CC(=O)N(C)C(CC(C)C)C(=O)NC(C(C)C)C(=O)N(C)C(CC(C)C)C(=O)NC(C)C(=O)NC(C)C(=O)N(C)C(CC(C)C)C(=O)N(C)C(CC(C)C)C(=O)N(C)C(C(C)C)C(=O)N1C (stereo unspecified)"
  MEASURED_QUANTITY: "cell viability (log2)"
  EXPERIMENTAL_VALUE: 0.00672
- COMPOUND: "N[C@@H](C=O)[C@@H](O)[C@H](O)[C@H](O)CO"
  MEASURED_QUANTITY: "cell viability (log2)"
  EXPERIMENTAL_VALUE: 0.145
- COMPOUND: "COC(=O)C[C@H]1C(C)(C)C(=O)[C@@H]2CC3C4=CC(=O)O[C@@H](c5ccoc5)[C@]4(C)CC[C@@H]3[C@@]1(C)C2=O (stereo partly specified)"
  MEASURED_QUANTITY: "cell viability (log2)"
  EXPERIMENTAL_VALUE: 0.0477
- COMPOUND: "CN(C)CCCN1c2ccccc2Sc2ccc(Cl)cc21"
  MEASURED_QUANTITY: "cell viability (log2)"
  EXPERIMENTAL_VALUE: 0.191
- COMPOUND: "O=c1c(-c2ccccc2)coc2cc(O)cc(O)c12"
  MEASURED_QUANTITY: "cell viability (log2)"
  EXPERIMENTAL_VALUE: 0.099
- COMPOUND: "CC1(C)CC[C@]2(C)CC[C@]3(C)C(=CC[C@@H]4[C@@]5(C)CC[C@H](O)C(C)(C)[C@@H]5CC[C@]43C)[C@@H]2C1"
  MEASURED_QUANTITY: "cell viability (log2)"
  EXPERIMENTAL_VALUE: 0.118

For every record below, what is its cell viability (log2)?
1. CC(C)CCC[C@@H](C)[C@H]1CC[C@H]2[C@@H]3CC[C@H]4C[C@@H](O)CC[C@]4(C)[C@H]3CC[C@]12C
2. CC[n+]1c(-c2ccccc2)c2cc(N)ccc2c2ccc(N)cc21
3. O=C(O)C1(O)C[C@@H](O)C(O)[C@H](O)C1 (stereo partly specified)
4. CCOc1c(Br)cc(C=C(C#N)c2nn(-c3ccccc3)c(N)c2C#N)cc1OC

0.113
-0.0126
-0.0156
0.193

Quick batch: cell viability (log2) for everything below.
1. CC[C@H](C)C(=O)O[C@H]1C[C@@H](C)C=C2C=C[C@H](C)[C@H](CC[C@@H]3C[C@@H](O)CC(=O)O3)[C@H]21
2. NC(=O)c1ncn([C@@H]2O[C@H](CO)[C@@H](O)[C@H]2O)n1
3. CC(=O)OCC(=O)[C@@]1(O)CC[C@H]2[C@@H]3CC[C@@H]4C[C@H](OC(C)=O)CC[C@]4(C)[C@H]3C(=O)C[C@@]21C
4. NC(=Nc1nc2ccccc2o1)NC(=O)c1sc2ccccc2c1Cl

[0.0431, -0.0568, -0.0696, -0.0453]

State recorded cell viability (log2) for all listed compounds.
1. O=C(c1cc(-c2ccccc2)nc2ccccc12)N1CCN(c2ccccc2)CC1
2. NCCCCCN
3. CCC(C)C(N)C1=NC(C(=O)N[C@@H](CC(C)C)C(=O)N[C@H](CCC(=O)O)C(=O)N[C@H](C(=O)N[C@H]2CCCCNC(=O)[C@H](CC(N)=O)NC(=O)[C@@H](CC(=O)O)NC(=O)[C@H](Cc3cnc[nH]3)NC(=O)[C@@H](Cc3ccccc3)NC(=O)[C@H]([C@@H](C)CC)NC(=O)[C@@H](CCCN)NC2=O)[C@@H](C)CC)CS1 (stereo partly specified)

[0.188, 0.103, 0.0875]
